- MEASURED_TARGET: T1, SARS-CoV-2 spike trimer S (Wuhan, SmT1) (SARS-CoV-2 Wuhan)
- T1 construct: extracellular domain
- MEASUREMENT_NOTES: SPR, antigen on chip
Attribute: kon
READOUT_NAME: kon (M⁻¹ s⁻¹)

INSERT INTO measurements (binder, output_unit, measured_value) VALUES
  ('NRCoV2-S2F3 VHH (VHH) VHH: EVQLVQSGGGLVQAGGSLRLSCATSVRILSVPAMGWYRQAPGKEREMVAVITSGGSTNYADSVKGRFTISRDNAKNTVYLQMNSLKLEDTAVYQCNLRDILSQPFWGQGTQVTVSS', 'M⁻¹ s⁻¹', 156000),
  ('NRCoV2-SR16 VHH (VHH) VHH: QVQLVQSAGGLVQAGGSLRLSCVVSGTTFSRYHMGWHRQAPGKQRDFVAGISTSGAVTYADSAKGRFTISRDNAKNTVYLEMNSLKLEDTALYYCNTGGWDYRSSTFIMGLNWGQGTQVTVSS', 'M⁻¹ s⁻¹', 657000),
  ('NRCoV2-07 VHH (VHH) VHH: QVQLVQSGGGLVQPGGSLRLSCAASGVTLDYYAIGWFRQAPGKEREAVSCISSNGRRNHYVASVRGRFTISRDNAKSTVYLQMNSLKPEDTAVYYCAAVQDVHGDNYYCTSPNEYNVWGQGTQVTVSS', 'M⁻¹ s⁻¹', 350000),
  ('NRCoV2-SR13 VHH (VHH) VHH: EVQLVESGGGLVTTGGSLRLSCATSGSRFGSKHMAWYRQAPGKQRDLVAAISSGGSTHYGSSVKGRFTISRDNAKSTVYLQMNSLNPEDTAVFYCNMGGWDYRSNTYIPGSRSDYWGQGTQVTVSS', 'M⁻¹ s⁻¹', '1.83e+06'),
  ('NRCoV2-SR04 VHH (VHH) VHH: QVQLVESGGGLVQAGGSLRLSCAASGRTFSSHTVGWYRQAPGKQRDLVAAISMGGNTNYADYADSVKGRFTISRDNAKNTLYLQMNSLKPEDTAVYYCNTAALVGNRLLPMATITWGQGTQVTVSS', 'M⁻¹ s⁻¹', '2.39e+06'),
  ('NRCoV2-SR03 VHH (VHH) VHH: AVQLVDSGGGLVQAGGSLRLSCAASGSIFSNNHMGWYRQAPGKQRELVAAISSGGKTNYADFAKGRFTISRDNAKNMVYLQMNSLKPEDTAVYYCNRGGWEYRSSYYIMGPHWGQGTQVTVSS', 'M⁻¹ s⁻¹', '1.01e+06');
